This listing pairs compounds with measured GI50.
System: SK-MEL-5
assay-summary: NCI tumour cell line growth inhibition, 48 h
Active and inactive are the calls of the source. No stated cut-off is given here; in the data, active = GI50 up to about 1.1 µM and inactive = higher.
measured-parameter: GI50

{"compound": "COc1cc(O)c2c(c1)O[C@@H]1OCC[C@H]21", "value-measured": "> 100 µM (inactive)"}
{"compound": "CC[N+]1(C)CCC(O)(/C=C/c2ccc(OC)cc2)C(C(=O)/C=C/c2ccc(OC)cc2)C1 (stereo not given)", "value-measured": "14.7 µM (inactive)"}
{"compound": "CC1NC(C(=O)O)Cc2cc(O)c(O)cc21 (stereo not given)", "value-measured": "> 100 µM (inactive)"}
{"compound": "C[C@]12CC[C@H](O)CC1=CC[C@@H]1C2CC[C@]2(C)NC(=O)C(C#N)CC12 (stereo not given in full)", "value-measured": "> 100 µM (inactive)"}
{"compound": "COc1ccc(C=O)cc1Oc1ccc(C[C@H]2c3c(cc(OC)c4c3Oc3cc5c(cc3O4)CCN(C)C5=O)CCN2C)cc1", "value-measured": "7.33 µM (inactive)"}
